target: Indoleamine 2,3-dioxygenase 1 (Homo sapiens); assay: Inhibition of IDO1 in LPS-induced human THP1 cells
Outcome Measure: IC50 (nM)
Numeric only. Scale: nM

### Prompt Form field: IC50 recorded for CC1(C)CCC[C@]2(C)[C@H]3CCC(C=O)C[C@H](O)[C@]3(C=O)CC[C@@H]12 (stereo partly specified) with Indoleamine 2,3-dioxygenase 1 (Homo sapiens) (enter value)
### Response 45

###

target: Indoleamine 2,3-dioxygenase 1 (Homo sapiens); test: Inhibition of recombinant human IDO1 expressed in Escherichia coli assessed as reduction in formation of kynurenine using L-tryptophan as substrate measured after 30 mins
Outcome Measure: IC50 (nM)
Numeric only. Scale: nM

### Prompt What value of IC50 has been recorded for this entry: "COC1=CC(=O)c2c(oc(C)c2CO)C1=O"
### Response 240

###

molecular target: UniProt:P14902; assay: Inhibition of recombinant human N-terminal His-tagged IDO1 expressed in Escherichia coli using L-tryptophan as substrate incubated for 60 mins by HPLC analysis
Outcome Measure: IC50 (µM)
Numeric only. Scale: µM

### Prompt What value of IC50 has been recorded for this entry: CC1(C)CCC[C@]2(C)[C@H]3CCC(C=O)C[C@H](O)[C@]3(C=O)CC[C@@H]12 (stereo partly specified)
### Response 7.7

###

target: UniProt P28776; experiment: Inhibition of mouse IDO1 expressed in COS1 cells assessed as reduction in N-formyl-kynurenine level incubated for 16 hrs
Sequence (P28776 whole entry): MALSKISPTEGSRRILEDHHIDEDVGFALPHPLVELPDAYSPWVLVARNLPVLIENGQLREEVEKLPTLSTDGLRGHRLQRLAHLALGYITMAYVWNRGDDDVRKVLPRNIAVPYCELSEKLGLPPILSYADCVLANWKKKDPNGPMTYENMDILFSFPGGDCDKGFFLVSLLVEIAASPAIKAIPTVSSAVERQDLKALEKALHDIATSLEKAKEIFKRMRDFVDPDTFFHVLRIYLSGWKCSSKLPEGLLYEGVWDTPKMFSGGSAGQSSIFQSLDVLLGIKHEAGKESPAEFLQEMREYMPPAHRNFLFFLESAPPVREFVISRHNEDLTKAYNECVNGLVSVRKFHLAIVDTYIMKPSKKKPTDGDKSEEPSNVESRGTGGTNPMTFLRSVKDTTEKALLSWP
Outcome Measure: EC50 (µM)
Numeric only. Scale: µM

### Prompt What value of EC50 has been recorded for this entry: "CSC(=S)NCc1c[nH]c2ccc(Br)cc12"
### Response 26.1

###

test: Half life in human cancer patient at 2000 mg bid for 28 days by LC-MS method; format: ADME; conditions: in vivo
Outcome Measure: half-life (h)
Numeric only. Scale: h

### Prompt What value of half-life has been recorded for this entry: Cn1cc(C[C@H](N)C(=O)O)c2ccccc21 (racemic) [(L)-1-METHYLTRYPTOPHAN]
### Response 10.5

###

biological target: Indoleamine 2,3-dioxygenase 1 (Homo sapiens, UniProt P14902); test: Inhibition of IDO1 in HEK293 cells assessed as reduction in L-kynurenine formation incubated for 48 hrs using L-tryptophan as substrate; type: cell-based
Sequence (P14902 whole entry): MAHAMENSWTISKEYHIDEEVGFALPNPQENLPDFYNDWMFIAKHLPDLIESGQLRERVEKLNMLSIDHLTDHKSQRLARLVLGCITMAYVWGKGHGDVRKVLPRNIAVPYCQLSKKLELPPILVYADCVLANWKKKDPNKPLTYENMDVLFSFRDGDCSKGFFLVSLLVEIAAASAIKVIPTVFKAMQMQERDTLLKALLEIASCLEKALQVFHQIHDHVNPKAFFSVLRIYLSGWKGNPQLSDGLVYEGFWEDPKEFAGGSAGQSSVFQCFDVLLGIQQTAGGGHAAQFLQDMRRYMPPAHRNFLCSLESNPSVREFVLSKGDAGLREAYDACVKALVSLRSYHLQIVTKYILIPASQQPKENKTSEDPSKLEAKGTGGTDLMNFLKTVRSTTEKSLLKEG
Outcome Measure: pIC50
The value called pIC50 is obtained by taking minus log10 of the concentration in mol/L.

### Prompt What value of pIC50 has been recorded for this entry: "Clc1ccc(Nc2cn[nH]n2)cc1"
### Response 7.17
